Target: Carbonic anhydrase 3 (Homo sapiens)
Sequence (P07451 whole entry): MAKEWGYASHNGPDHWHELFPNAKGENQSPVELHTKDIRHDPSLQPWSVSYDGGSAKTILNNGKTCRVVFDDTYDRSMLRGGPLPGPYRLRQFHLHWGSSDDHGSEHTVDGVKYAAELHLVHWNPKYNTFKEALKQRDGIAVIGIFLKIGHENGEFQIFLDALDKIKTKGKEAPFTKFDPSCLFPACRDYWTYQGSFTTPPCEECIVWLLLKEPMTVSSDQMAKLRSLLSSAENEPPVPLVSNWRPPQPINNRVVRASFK
Assay: Binding affinity to human recombinant CA III active site expressed in Escherichia coli BL21 (DE3) pLysS cells at 18.18 uM at protein:compound ratio of 1:2 incubated for 30 mins by native mass spectrometry analysis
The source made the active and inactive calls. No cut-off for these calls is given here.

{"compound": "NS(=O)(=O)c1ccc(N2CCCCS2(=O)=O)cc1", "Activity": "inactive"}
{"compound": "Cc1onc(-c2ccccc2)c1-c1ccc(S(N)(=O)=O)cc1", "Activity": "inactive"}
{"compound": "CC1Cc2ccccc2N1NC(=O)c1ccc(Cl)c(S(N)(=O)=O)c1 (stereo not drawn)", "Activity": "inactive"}
